Molecular target: CYP3A4 (Homo sapiens, UniProt P08684)
Sequence (P08684 whole entry): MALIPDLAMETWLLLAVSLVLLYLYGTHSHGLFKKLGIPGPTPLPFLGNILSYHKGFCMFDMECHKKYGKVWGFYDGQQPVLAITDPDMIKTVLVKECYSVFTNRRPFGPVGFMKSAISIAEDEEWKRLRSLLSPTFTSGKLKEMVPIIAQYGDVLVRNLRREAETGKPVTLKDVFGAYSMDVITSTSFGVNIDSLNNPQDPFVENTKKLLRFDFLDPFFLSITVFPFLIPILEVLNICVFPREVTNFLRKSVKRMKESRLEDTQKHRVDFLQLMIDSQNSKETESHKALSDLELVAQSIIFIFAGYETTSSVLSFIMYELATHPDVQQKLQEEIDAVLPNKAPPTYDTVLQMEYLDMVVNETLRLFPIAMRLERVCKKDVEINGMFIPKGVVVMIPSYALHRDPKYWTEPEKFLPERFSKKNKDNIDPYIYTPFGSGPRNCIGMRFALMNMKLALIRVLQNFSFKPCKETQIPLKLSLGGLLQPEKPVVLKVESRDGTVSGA
Assay: in vitro
Conditions: both, microsomes
MEASURE NAME: inhibition at 10 min, 0.33 µM (%)
Unit % implied. Number only.

(Q) Query (molecule): O=C(O)C(Oc1cccc(C(F)(F)F)c1)c1ccc(Cl)cc1 (single isomer, unassigned; (-)) [(−) halofenic acid] ; field requested: inhibition at 10 min, 0.33 µM
(A) 1.5

---

Biological target: UniProt P11712
Sequence (P11712 whole entry): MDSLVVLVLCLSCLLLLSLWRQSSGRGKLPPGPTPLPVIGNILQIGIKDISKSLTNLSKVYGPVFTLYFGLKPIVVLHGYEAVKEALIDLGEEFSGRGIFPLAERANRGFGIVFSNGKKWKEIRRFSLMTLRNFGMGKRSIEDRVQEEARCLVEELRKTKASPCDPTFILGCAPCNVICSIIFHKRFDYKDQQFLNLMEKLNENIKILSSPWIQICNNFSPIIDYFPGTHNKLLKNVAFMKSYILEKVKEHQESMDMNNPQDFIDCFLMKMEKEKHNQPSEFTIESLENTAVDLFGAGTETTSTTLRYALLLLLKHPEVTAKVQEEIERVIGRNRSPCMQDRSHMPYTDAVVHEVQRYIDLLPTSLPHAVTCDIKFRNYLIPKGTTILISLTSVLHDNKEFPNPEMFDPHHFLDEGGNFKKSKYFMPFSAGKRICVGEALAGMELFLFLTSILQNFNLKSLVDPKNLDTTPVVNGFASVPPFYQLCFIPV
Assay: in vitro
Details: both, microsomes
MEASURE NAME: inhibition at 40 min, 1 μM (%)
Unit % implied. Number only.

(Q) Query (compound): O=C(O)C(Oc1cccc(C(F)(F)F)c1)c1ccc(Cl)cc1 (single isomer, unassigned; (-)) [(−) halofenic acid] ; field requested: inhibition at 40 min, 1 μM
(A) 10
